molecular target: KCNQ2/3 channels (Homo sapiens, UniProt O43525+O43526); assay: Fluorescence assay using a voltage-sensitive dye (fluorimetry); settings: CHO-K1 cells expressing KCNQ2/3 channels
EC50 values, listed per item
Enter your answer as a number in nM; do not include the unit.

Recorded EC50 for CCCCCSc1nc2cc(C(F)(F)F)ccc2cc1C(=O)NCc1cccs1 [compound 15] , please?
778

Recorded EC50 for CCSc1nc2cc(C(F)(F)F)ccc2cc1C(=O)NCC(C)(C)C [compound 90] , please?
842

Recorded EC50 for CCSc1nc2ccccc2c(C)c1C(=O)NCc1cccs1 [compound 91] , please?
1210

Recorded EC50 for CCSc1nc2ccc(C(F)(F)F)cc2c(C)c1C(=O)NCc1cccc(F)c1 [compound 103] , please?
784

---

target: KCNQ2/3 channels (Homo sapiens, UniProt O43525+O43526); construct: expressed in transfected cells; host or cells: CHO-K1 cells; assay: Fluorescence assay using a voltage-sensitive dye (fluorimetry); format: cell-based; conditions: at 1 μM; 50 μM retigabine = 100%; CHO-K1 cells expressing KCNQ2/3; read-out: Fluorimetry % efficacy at 1 μM (50 μM retigabine = 100%)
Metric name: Emax at 1 µM (%)
Enter your answer as a number in %; do not include the unit.

Some entries whose results are on file:
{"Compound": "CCSc1nc2c(OC)cccc2c(C)c1C(=O)NCc1cccc(F)c1 [compound 138]", "Unit string": "%", "Emax at 1 µM": 91}
{"Compound": "CCSc1nc2cc(OC)ccc2c(C)c1C(=O)NCc1cccc(F)c1 [compound 97]", "Unit string": "%", "Emax at 1 µM": 60}
{"Compound": "CCSc1nc2cc(C(F)(F)F)ccc2c(C)c1C(=O)NCc1cccc(C(C)(C)C)c1 [compound 56]", "Unit string": "%", "Emax at 1 µM": 97}
{"Compound": "O=C(NCc1cccs1)c1cc2ccc(C(F)(F)F)cc2nc1SCCS(=O)(=O)c1ccccc1 [compound 9]", "Unit string": "%", "Emax at 1 µM": 26}
{"Compound": "CCSc1nc2cc(C(F)(F)F)ccc2c(C)c1C(=O)NCCC(C)(C)C [compound 25]", "Unit string": "%", "Emax at 1 µM": 8}
{"Compound": "O=C(NCC1CCCCC1)c1cc2ccccc2nc1SCCS(=O)(=O)c1ccccc1 [compound 19]", "Unit string": "%", "Emax at 1 µM": 71}
{"Compound": "CCCCCSc1nc2cc(C(F)(F)F)ccc2c(C)c1C(=O)NCc1cccc(F)c1 [compound 50]", "Unit string": "%", "Emax at 1 µM": 150}
{"Compound": "CCSc1nc2cc(C(F)(F)F)ccc2c(C)c1C(=O)NCc1ccc(OC)cc1 [compound 86]", "Unit string": "%", "Emax at 1 µM": 108}
{"Compound": "CCSc1nc2cc(C(F)(F)F)ccc2c(C)c1C(=O)NCc1ccc(O)cc1 [compound 119]", "Unit string": "%", "Emax at 1 µM": 72}
{"Compound": "CCSc1nc2cc(C(F)(F)F)ccc2c(C)c1C(=O)NCCc1cccs1 [compound 72]", "Unit string": "%", "Emax at 1 µM": 59}

Recorded Emax at 1 µM for O=C(NCc1cccs1)c1cc2ccccc2nc1SCCS(=O)(=O)c1ccccc1 [compound 5] , please?
98

Recorded Emax at 1 µM for CCSc1nc2ccc(C)cc2c(C)c1C(=O)NCc1ccc(F)cc1 [compound 100] , please?
45

Recorded Emax at 1 µM for CCCCCSc1nc2ccc(C(F)(F)F)cc2cc1C(=O)NCc1cccs1 [compound 11] , please?
41

Recorded Emax at 1 µM for CCSc1nc2cccc(OC)c2c(C)c1C(=O)NCc1ccc(F)cc1 [compound 126] , please?
5

Recorded Emax at 1 µM for CCSc1nc2cc(C(F)(F)F)ccc2c(C)c1C(=O)NCc1ccc(F)c(F)c1 [compound 31] , please?
159

---

pEC50 values, listed per item
target: KCNQ2/3 channels (Homo sapiens, UniProt O43525+O43526); construct: expressed in transfected cells; host or cells: CHO-K1 cells; assay: Fluorescence assay using a voltage-sensitive dye (fluorimetry); type: cell-based; settings: CHO-K1 cells expressing KCNQ2/3 channels
Scale for pEC50: -log10 of concentration given in mol/L; no unit attached.

{"Compound": "CCSc1nc2cc(F)c(F)cc2c(C)c1C(=O)NCc1ccc(F)cc1", "Result number": 6.73}
{"Compound": "CCSc1nc2c(OC)cccc2c(C)c1C(=O)NCc1cccc(F)c1", "Result number": 5.65}
{"Compound": "CCSc1nc2ccc(F)cc2c(C)c1C(=O)NCc1ccc(F)cc1", "Result number": 6.65}
{"Compound": "CCSc1nc2cc(C(F)(F)F)ccc2c(C)c1C(=O)NCc1cccnc1", "Result number": 5.77}
{"Compound": "CCSc1nc2cc(C(F)(F)F)ccc2c(Cl)c1C(=O)NCc1cccc(F)c1", "Result number": 7.19}

Recorded pEC50 for CCSc1nc2cc(C(C)(C)C)ccc2c(C)c1C(=O)NCc1cccc(F)c1 , please?
6.20

Recorded pEC50 for CCSc1nc2cc(C(F)(F)F)ccc2c(C)c1C(=O)NCc1ccc2ccccc2c1 , please?
6.80

Recorded pEC50 for CCSc1nc2cc(C(F)(F)F)ccc2c(C)c1C(=O)NCc1ccccc1O , please?
6.89

Recorded pEC50 for CCSc1nc2cc(OC(F)(F)F)ccc2c(C)c1C(=O)NCc1ccc(F)cc1 , please?
7.29

Recorded pEC50 for CCSc1nc2cc(C(F)(F)F)ccc2c(C)c1C(=O)NCc1cccs1 , please?
7.09

Recorded pEC50 for O=C(NCc1cccs1)c1cc2ccccc2nc1SCCCc1ccc(F)cc1 , please?
5.91

Recorded pEC50 for CCSc1nc2cc(C(F)(F)F)ccc2c(C)c1C(=O)NCCc1cccs1 , please?
6.14

Recorded pEC50 for CCSc1nc2cc(C(F)(F)F)ccc2c(C)c1C(=O)NCc1ccc(C)cc1 , please?
6.62

Recorded pEC50 for CCSc1nc2cc(C)ccc2c(C)c1C(=O)NCc1ccc(F)cc1 , please?
6.29

Recorded pEC50 for CCSc1nc2cc(C(F)(F)F)ccc2c(C)c1C(=O)NCc1cccc(OC)c1 , please?
6.38

Recorded pEC50 for CSc1nc2cc(C(F)(F)F)ccc2c(C)c1C(=O)NCc1cccs1 , please?
6.67

Recorded pEC50 for CCSc1nc2cc(C(F)(F)F)ccc2c(C)c1C(=O)NCc1ccc(F)cc1F , please?
7.23

Recorded pEC50 for CCSc1nc2cc(C(F)(F)F)ccc2c(C)c1C(=O)NCc1ccccc1 , please?
6.79

Recorded pEC50 for CSc1nc2cc(C(F)(F)F)ccc2c(C)c1C(=O)NCc1ccc(F)cc1 , please?
6.87

Recorded pEC50 for CCSc1nc2cc(C(F)(F)F)ccc2c(C)c1C(=O)NCc1ccc(Cl)s1 , please?
6.52

Recorded pEC50 for CCC(C)Sc1nc2cc(C(F)(F)F)ccc2c(C)c1C(=O)NCc1cccc(F)c1 (centres unmarked) , please?
7.43

Recorded pEC50 for CCSc1nc2cc(C(C)(C)C)ccc2c(C)c1C(=O)NCc1ccc(F)cc1 , please?
6.09

Recorded pEC50 for CCSc1nc2cc(C(F)(F)F)ccc2c(C)c1C(=O)NCc1ccc(C(C)(C)C)cc1 , please?
6.87

Recorded pEC50 for Cc1c(C(=O)NCc2cccc(F)c2)c(SC2CCCC2)nc2cc(C(F)(F)F)ccc12 , please?
7.25

Recorded pEC50 for Cc1c(C(=O)NCc2cccc(F)c2)c(SC(C)C)nc2cc(C(F)(F)F)ccc12 , please?
7.14

Recorded pEC50 for CCSc1nc2c(C(F)(F)F)cccc2c(C)c1C(=O)NCc1cccc(F)c1 , please?
6.64

Recorded pEC50 for CCSc1nc2cc(C(F)(F)F)ccc2cc1C(=O)NCc1cccs1 , please?
6.54

Recorded pEC50 for CCSc1nc2cc(C(F)(F)F)ccc2c(C)c1C(=O)NCc1ccccn1 , please?
5.96

Recorded pEC50 for CCSc1nc2cc(C(F)(F)F)ccc2c(C)c1C(=O)NCCC1CCCC1 , please?
6.59

---

biological target: KCNQ2/3 channels (Homo sapiens, UniProt O43525+O43526); construct: expressed in transfected cells; host or cells: CHO-K1 cells; assay: Fluorescence assay using a voltage-sensitive dye (fluorimetry); format: cell-based; settings: at 1 μM; 50 μM retigabine = 100%; CHO-K1 cells expressing KCNQ2/3; read-out: Fluorimetry % efficacy at 1 μM (50 μM retigabine = 100%)
Emax at 1 µM values, listed per item
Enter your answer as a number in %; do not include the unit.

Some entries whose results are on file:
{"Compound": "CCSc1nc2cc(C(F)(F)F)ccc2c(C)c1C(=O)NCc1cccc(F)c1 [compound 76]", "Unit string": "%", "Emax at 1 µM": 182}
{"Compound": "CCSc1nc2ccccc2c(C)c1C(=O)NCc1cccs1 [compound 91]", "Unit string": "%", "Emax at 1 µM": 50}

# input for lookup
Recorded Emax at 1 µM for O=C(NCc1cccs1)c1cc2ccccc2nc1SCCCC1CCCCC1 [compound 3] , please?
77
